I'd appreciate it if you could supply IC50 values for the items below.
ASSAY EXPLANATION: Cytotoxicity against human Hep3B cells by MTT assay
Assay type: functional, cell-based, Hep 3B2
STUDY CONDITIONS: Homo sapiens, Hep3B; read-out: IC50
Answers are plain numbers, in µg/mL.

Record excerpt, results attached:
>  <COMPOUND>
COC1=CC(=O)C([C@@H](C)[C@@H](O)c2ccc(OC)c(O)c2)=CC1=O [PTEROLINUS E]

>  <TEST VALUE>
6.96

$$$$
>  <COMPOUND>
COC1=CC(=O)C2(C(C)C(O)c3ccc(OC)c(O)c3)OC2C1=O (stereo not drawn) [PTEROLINUS D]

>  <TEST VALUE>
2.08

$$$$

I'm hoping you can list IC50 for every compound here, please.
1. COc1ccc([C@H]2Oc3cc(OC)c(O)cc3[C@@H]2C)cc1O [MELANOXIN]
2. C=C[C@H](C1=CC(=O)C(OC)=CC1=O)c1ccc(OC)c(O)c1
3. C=C[C@@H](c1ccc(OC)c(O)c1)c1cc(O)c(C(=O)OC)cc1O [PTEROLINUS F]

Reply:
1. 7.7
2. 2.39
3. 11.1

====

Tested on: MCF7
ASSAY EXPLANATION: Cytotoxicity against human MCF7 cells by MTT assay
Assay type: functional, cell-based
STUDY CONDITIONS: Homo sapiens, MCF7; read-out: IC50
hey, just use t if measured IC50 is less than 7 µg/mL, otherwise f

Here are 5 molecules together with their reported answers.
>  <MOLECULE>
C=C[C@@H](c1ccc(OC)c(O)c1)c1cc(O)c(C(=O)OC)cc1O [PTEROLINUS F]

>  <ASSAYED SYSTEM>
MCF7

>  <CATEGORY LABEL>
f

$$$$
>  <MOLECULE>
COC1=CC(=O)C2(C(C)C(O)c3ccc(OC)c(O)c3)OC2C1=O (stereo not drawn) [PTEROLINUS D]

>  <ASSAYED SYSTEM>
MCF7

>  <CATEGORY LABEL>
t

$$$$
>  <MOLECULE>
COc1ccc([C@H]2Oc3cc(OC)c(O)cc3[C@@H]2C)cc1O [MELANOXIN]

>  <ASSAYED SYSTEM>
MCF7

>  <CATEGORY LABEL>
f

$$$$
>  <MOLECULE>
COc1ccc(-c2cc(=O)oc3cc(OC)c(O)cc23)cc1O [MELANNEIN]

>  <ASSAYED SYSTEM>
MCF7

>  <CATEGORY LABEL>
f

$$$$
>  <MOLECULE>
COc1cc2oc(-c3ccc(O)cc3)c(C)c2cc1O [PTEROLINUS B]

>  <ASSAYED SYSTEM>
MCF7

>  <CATEGORY LABEL>
t

$$$$

Ask: Dear reviewer, please state whether COc1ccc([C@H]2Oc3cc(OC)c(OC)cc3[C@@H]2C)cc1O [PTEROLINUS C] has IC50 strictly beneath 7 µg/mL.
Reply: f

Ask: Dear reviewer, please state whether COc1cc(C2CCOc3cc(OC)c(O)cc32)ccc1O (stereo not drawn) [PTEROLINUS J] has IC50 strictly beneath 7 µg/mL.
Reply: f

====

ASSAY EXPLANATION: Antiinflammatory activity in human neutrophils assessed as inhibition of FMLP/CB-induced elastase release at 10 ug/ml
Assay type: functional, Neutrophil
STUDY CONDITIONS: Homo sapiens, Neutrophil
MEASURE NAME: inhibition at 10 µg/mL
Please make sure the unit comes right after the number.

>  <COMPOUND>
COc1cc(C2CCOc3cc(OC)c(O)cc32)ccc1O (centres undefined)

>  <TEST VALUE>
16.6%

$$$$
>  <COMPOUND>
COc1ccc([C@H]2Oc3cc(OC)c(OC)cc3[C@@H]2C)cc1O

>  <TEST VALUE>
9.73%

$$$$
>  <COMPOUND>
COc1ccc(-c2cc(=O)oc3cc(OC)c(O)cc23)cc1O

>  <TEST VALUE>
-1.53%

$$$$

Turning to the following compound.
The reported inhibition at 10 µg/mL of the compound COc1ccc([C@H]2Oc3cc(OC)c(O)cc3[C@@H]2C)cc1O was 33.3%

The reported measurements were obtained from ChEMBL document CHEMBL1799983.
